# study system: cAMP-dependent protein kinase (PKA) (Homo sapiens) (UniProt P22694+P17612+P22612)
# test protocol: In vitro inhibitory activity against Protein Kinase A at a concentration of 10 uM
# Type: protein assay
reported endpoint: inhibition (%)
Field format: number, assumed %, no unit text.

> print(dat)
                                   molecule  experimental.result
1  COC(=O)c1cc(C(=O)c2cc(NC(=O)CCn3c4ccccc4c4c5c(c6c7ccccc7[nH]c6c43)C(=O)NC5)cn2C)cn1C                   43
2  O=C(CCn1c2ccccc2c2c3c(c4c5ccccc5[nH]c4c21)C(=O)NC3)NCC1CCOC1 (centres undefined)                   41

Incoming: Value lookup for inhibition; key = COC(=O)c1cc(C(=O)c2cc(C(=O)c3cc(NC(=O)CCn4c5ccccc5c5c6c(c7c8ccccc8[nH]c7c54)C(=O)NC6)cn3C)cn2C)cn1C
Outgoing: 40

Incoming: Value lookup for inhibition; key = CN1CCCC1CCNC(=O)CCn1c2ccccc2c2c3c(c4c5ccccc5[nH]c4c21)C(=O)NC3 (centres undefined)
Outgoing: 25

----------
# study system: cAMP-dependent protein kinase (PKA) (Homo sapiens) (UniProt P22694+P17612+P22612)
# test protocol: In vitro inhibitory activity against Protein Kinase A at a concentration of 10 uM
# Format: protein assay
reported endpoint: inhibition
Value and unit, in that order.

Recorded inhibition, per entry:
> print(dat)
                              smiles.string  experimental.result
1  O=C(CCn1c2ccccc2c2c3c(c4c5ccccc5[nH]c4c21)C(=O)NC3)NCCN1CCOCC1                  49%
2  O=C(CCn1c2ccccc2c2c3c(c4c5ccccc5[nH]c4c21)C(=O)NC3)NCCN1CCCCC1                  42%
3  COC(=O)c1cc(NC(=O)CCn2c3ccccc3c3c4c(c5c6ccccc6[nH]c5c32)C(=O)NC4)cn1C                  40%

# ---- query compound ----
Incoming: Value lookup for inhibition; key = CN(C)CCCNC(=O)CCn1c2ccccc2c2c3c(c4c5ccccc5[nH]c4c21)C(=O)NC3
Outgoing: 41%
